Every entry's value here was drawn from ChEMBL document CHEMBL5291721.

biological target: 3',5'-cyclic-AMP phosphodiesterase 4D (Homo sapiens); format: functional; also: assay procedure not described here
Sequence (Q08499 whole entry): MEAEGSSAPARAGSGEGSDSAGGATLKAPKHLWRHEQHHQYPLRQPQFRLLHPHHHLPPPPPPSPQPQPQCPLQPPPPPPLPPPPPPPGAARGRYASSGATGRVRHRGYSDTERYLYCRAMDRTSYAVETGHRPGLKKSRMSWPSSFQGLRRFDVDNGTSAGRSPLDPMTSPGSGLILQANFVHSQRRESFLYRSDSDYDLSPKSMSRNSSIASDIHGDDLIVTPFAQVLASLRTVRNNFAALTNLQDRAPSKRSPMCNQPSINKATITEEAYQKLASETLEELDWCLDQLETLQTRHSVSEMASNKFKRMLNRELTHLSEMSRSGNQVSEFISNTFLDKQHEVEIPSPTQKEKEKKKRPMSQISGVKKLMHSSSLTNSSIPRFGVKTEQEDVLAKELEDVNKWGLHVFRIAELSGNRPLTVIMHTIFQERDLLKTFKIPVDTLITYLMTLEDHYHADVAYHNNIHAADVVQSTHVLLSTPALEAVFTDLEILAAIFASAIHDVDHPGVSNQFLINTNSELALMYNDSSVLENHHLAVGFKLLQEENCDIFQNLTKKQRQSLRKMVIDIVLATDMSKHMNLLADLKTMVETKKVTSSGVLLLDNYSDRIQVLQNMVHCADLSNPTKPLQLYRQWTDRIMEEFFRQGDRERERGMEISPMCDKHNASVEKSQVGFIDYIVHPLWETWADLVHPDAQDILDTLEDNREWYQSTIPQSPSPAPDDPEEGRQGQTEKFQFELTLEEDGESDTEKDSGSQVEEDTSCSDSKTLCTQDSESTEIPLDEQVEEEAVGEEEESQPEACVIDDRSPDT
ATTRIBUTE_MEASURED: AC50

Request: What value of AC50 on 3',5'-cyclic-AMP phosphodiesterase 4D (Homo sapiens) does CN1CCN(c2c(F)cc3c(=O)c(C(=O)O)cn4c3c2SCC4)CC1 have?
Response: > 30 µM

Request: Find AC50 (3',5'-cyclic-AMP phosphodiesterase 4D (Homo sapiens)) for the entry CC1(C)O[C@@H]2[C@@H](CO[C@@]3(COS(N)(=O)=O)OC(C)(C)O[C@@H]23)O1 [TOPIRAMATE]
Response: > 30 µM

Request: // lookup AC50 | system=3',5'-cyclic-AMP phosphodiesterase 4D (Homo sapiens) | key= CNCCCC1c2ccccc2C=Cc2ccccc21; also: assay procedure not described here
Response: > 30 µM

Request: Which measured AC50 belongs to C#C[C@]1(O)CC[C@H]2[C@@H]3CCC4=CC(=O)CCC4=C3C=C[C@@]21CC , tested on 3',5'-cyclic-AMP phosphodiesterase 4D (Homo sapiens)?; also: assay procedure not described here
Response: 4.1 µM

Request: Notebook entry, 3',5'-cyclic-AMP phosphodiesterase 4D (Homo sapiens) assay: AC50 of CC(=O)/N=c1/sc(S(N)(=O)=O)nn1C [METHAZOLAMIDE] = ?
Response: > 30 µM

Request: Lab request: please report AC50 under test system 3',5'-cyclic-AMP phosphodiesterase 4D (Homo sapiens) for CCOC(=O)Nc1ccc2c(c1)N(C(=O)CCN1CCOCC1)c1ccccc1S2; also: assay procedure not described here
Response: 0.77 µM

---
Request: Can you look up AC50 on 3',5'-cyclic-AMP phosphodiesterase 4D (Homo sapiens) for C[n+]1ccccc1/C=N/O ?
Response: 24 µM

Request: // map COc1cc(OC)c(C(=O)CCCN2CCCC2)c(OC)c1 to recorded AC50 (system: 3',5'-cyclic-AMP phosphodiesterase 4D (Homo sapiens)); also: assay procedure not described here
Response: > 30 µM

Request: Notebook entry, 3',5'-cyclic-AMP phosphodiesterase 4D (Homo sapiens) assay: AC50 of CNCC[C@@H](Oc1ccccc1C)c1ccccc1 = ?
Response: > 30 µM
